testTarget: Melanocortin receptor 4 (Mus musculus, UniProt P56450)
Sequence (P56450 whole entry): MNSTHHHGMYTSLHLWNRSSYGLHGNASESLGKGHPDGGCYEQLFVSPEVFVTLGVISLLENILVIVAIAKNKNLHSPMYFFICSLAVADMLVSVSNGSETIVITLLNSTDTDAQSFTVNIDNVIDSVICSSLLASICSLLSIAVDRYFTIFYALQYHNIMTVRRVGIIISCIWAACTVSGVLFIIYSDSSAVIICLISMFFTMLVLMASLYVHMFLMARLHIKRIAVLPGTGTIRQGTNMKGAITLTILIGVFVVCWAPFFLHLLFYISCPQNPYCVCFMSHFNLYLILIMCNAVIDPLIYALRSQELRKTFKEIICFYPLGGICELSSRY
methodDescription: Agonist activity at mouse MC4R expressed in HEK293 cells by beta-galactosidase assay
Assay type: functional, cell-based
readoutLabel: EC50

EC50 reading for `CC(C)C[C@H](NC(=O)[C@H](CCCCN)NC(=O)[C@H](CCCNC(=N)N)NC(=O)[C@H](C)NC(=O)[C@H](Cc1ccc(O)cc1)NC(=O)[C@@H]1CSSC[C@H](NC(=O)[C@H](Cc2ccc(O)cc2)NC(=O)[C@H](C)NC(=O)[C@@H](NC(=O)[C@H](C)NC(=O)[C@H](C)NC(=O)[C@@H]2CCCN2C(=O)[C@@H](N)CC(=O)O)[C@@H](C)O)C(=O)N[C@@H](CCCNC(=N)N)C(=O)N[C@H](Cc2ccccc2)C(=O)N[C@H](Cc2ccccc2)C(=O)N[C@@H](CC(N)=O)C(=O)N[C@@H](C)C(=O)N[C@@H](Cc2ccccc2)C(=O)N1)C(=O)O` : 6.24 µM (agonist)

EC50 reading for `CC(C)C[C@H](NC(=O)[C@H](CCCCN)NC(=O)[C@H](CCCNC(=N)N)NC(=O)[C@H](C)NC(=O)[C@H](Cc1ccc(O)cc1)NC(=O)[C@@H]1CSSC[C@H](NC(=O)[C@H](Cc2ccc(O)cc2)NC(=O)[C@H](C)NC(=O)[C@@H](NC(=O)[C@H](C)NC(=O)[C@H](C)NC(=O)[C@@H]2CCCN2C(=O)[C@@H](N)CC(=O)O)[C@@H](C)O)C(=O)N[C@H](CCCNC(=N)N)C(=O)N[C@@H](Cc2ccccc2)C(=O)N[C@H](Cc2ccccc2)C(=O)N[C@@H](CC(N)=O)C(=O)N[C@@H](C)C(=O)N[C@@H](Cc2ccccc2)C(=O)N1)C(=O)O` : 8.33 µM (agonist)

EC50 reading for `CC(C)C[C@H](NC(=O)[C@H](CCCCN)NC(=O)[C@H](CCCNC(=N)N)NC(=O)[C@H](C)NC(=O)[C@H](Cc1ccc(O)cc1)NC(=O)[C@@H]1CSSC[C@H](NC(=O)[C@H](Cc2ccc(O)cc2)NC(=O)[C@H](C)NC(=O)[C@@H](NC(=O)[C@H](C)NC(=O)[C@H](C)NC(=O)[C@@H]2CCCN2C(=O)[C@@H](N)CC(=O)O)[C@@H](C)O)C(=O)N[C@H](CCCNC(=N)N)C(=O)N[C@@H](Cc2ccccc2)C(=O)N[C@@H](Cc2ccccc2)C(=O)N[C@@H](CC(N)=O)C(=O)N[C@@H](C)C(=O)N[C@@H](Cc2ccccc2)C(=O)N1)C(=O)O` : 37.7 µM (agonist)
